Entries annotated with measured Ki
Tgt: bovine trypsin (Bos taurus)
Sequence (P00760 24-246): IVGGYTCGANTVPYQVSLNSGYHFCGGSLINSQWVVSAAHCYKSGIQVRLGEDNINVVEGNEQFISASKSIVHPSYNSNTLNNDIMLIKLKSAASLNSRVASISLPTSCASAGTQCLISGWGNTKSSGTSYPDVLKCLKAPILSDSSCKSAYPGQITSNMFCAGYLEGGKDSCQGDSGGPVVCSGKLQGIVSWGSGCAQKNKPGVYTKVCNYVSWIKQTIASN
Run description: Trypsin inhibitory activity of peptides (BApNA hydrolysis, OD405; IC50, Ki, residual activity)
Format: biochemical
Details: Ki=IC50/(1+S/Km), Km 0.33 mM; read-out: Ki
Bridge positions count the residues as written; N and C are the ends. Square brackets hold non-standard residues; d marks the D form. Peptide text beside a SMILES is read from it. Hyp = O=C(O)[C@@H]1C[C@@H](O)CN1
Reply with just the number (in nM).

{"columns": ["Compound", "Tgt", "Units text", "Ki"],
 "data": [
  ["CC[C@H](C)[C@@H]1NC(=O)[C@@H]2CCCN2C(=O)[C@@H]2CCCN2C(=O)[C@H]([C@@H](C)CC)NC(=O)[C@H](CO)NC(=O)[C@H](CCCCN)NC(=O)[C@H]([C@@H](C)O)NC(=O)[C@H](Cc2c[nH]cn2)NC(=O)[C@H](CCCNC(=N)N)NC(=O)CNC(=O)[C@@H](N)CSSC[C@@H](C(=O)N[C@@H](Cc2ccccc2)C(=O)O)NC1=O [BT56] (H-CGRHTKSIPPICF-OH; disulfide 1-12; N-terminus and C-terminus assumed)", "bovine trypsin (Bos taurus)", "nM", 20]
]}

// switching to the query compound
Return reported Ki; argument: CC[C@H](C)[C@@H]1NC(=O)[C@@H]2CCCN2C(=O)[C@@H]2CCCN2C(=O)[C@H]([C@@H](C)CC)NC(=O)[C@H](CO)NC(=O)[C@H](CCCCN)NC(=O)[C@H]([C@@H](C)O)NC(=O)[C@H](C)NC(=O)[C@H](CCCNC(=N)N)NC(=O)[C@@H]2C[C@@H](O)CN2C(=O)[C@@H](N)CSSC[C@@H](C(=O)N[C@@H](Cc2ccccc2)C(=O)O)NC1=O [BT46] (H-C[Hyp]RATKSIPPICF-OH; disulfide 1-12; C-terminus assumed)
10
